These data points were gathered from ChEMBL document CHEMBL5705898.

target: MAO-A (Amine oxidase [flavin-containing] A) (Homo sapiens); assay: Inhibition of MAO-A (unknown origin) at 10 uM relative to control
Sequence (P21397 whole entry): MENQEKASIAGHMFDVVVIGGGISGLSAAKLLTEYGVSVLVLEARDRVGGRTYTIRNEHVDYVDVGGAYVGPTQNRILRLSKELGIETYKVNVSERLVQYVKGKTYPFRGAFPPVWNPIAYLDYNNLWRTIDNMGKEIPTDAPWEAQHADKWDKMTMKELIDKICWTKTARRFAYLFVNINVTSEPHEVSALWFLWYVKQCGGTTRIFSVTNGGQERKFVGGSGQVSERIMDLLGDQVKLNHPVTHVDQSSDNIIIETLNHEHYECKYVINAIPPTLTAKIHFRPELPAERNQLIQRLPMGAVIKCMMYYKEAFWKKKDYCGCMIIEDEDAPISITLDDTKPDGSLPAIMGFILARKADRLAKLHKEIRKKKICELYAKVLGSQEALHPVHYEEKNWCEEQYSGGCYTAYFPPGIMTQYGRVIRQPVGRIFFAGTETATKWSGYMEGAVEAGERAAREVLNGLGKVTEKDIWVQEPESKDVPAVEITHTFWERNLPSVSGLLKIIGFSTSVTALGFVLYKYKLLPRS
MEASUREMENT_TYPE: inhibition at 10 µM (%)
Answer in %, number only, no unit symbol.

Request: Please provide the recorded inhibition at 10 µM for O=C([C@@H](Cc1cccc(C(F)(F)F)c1)NS(=O)(=O)c1cc(F)c2c(c1)CCNC2)N1CCCC1 , tested on MAO-A (Amine oxidase [flavin-containing] A) (Homo sapiens).
Response: 6

---

target: Histone-lysine N-methyltransferase SETD7 (Homo sapiens, UniProt Q8WTS6); assay: Inhibition of full length human SETD7 (1 to 366 residues) expressed in Escherichia coli BL21 (DE3) V2R-pRARE assessed as apparent inhibition constant using biotinylated H3 (1-25) peptide as substrate incubated for 1 hrs in presence of 3H-SAM by morrison equation; conditions: read-out: Ki(app)
Sequence (Q8WTS6 whole entry, the tested form may be a part): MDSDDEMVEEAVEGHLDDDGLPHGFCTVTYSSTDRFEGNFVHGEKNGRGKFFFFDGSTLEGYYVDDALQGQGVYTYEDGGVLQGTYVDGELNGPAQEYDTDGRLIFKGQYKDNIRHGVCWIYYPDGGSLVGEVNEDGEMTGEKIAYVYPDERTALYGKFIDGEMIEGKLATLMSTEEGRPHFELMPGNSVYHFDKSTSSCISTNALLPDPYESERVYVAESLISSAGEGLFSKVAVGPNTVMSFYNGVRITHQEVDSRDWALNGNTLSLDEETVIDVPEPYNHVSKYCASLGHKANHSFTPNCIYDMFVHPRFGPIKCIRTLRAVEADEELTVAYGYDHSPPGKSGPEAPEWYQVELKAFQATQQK
MEASUREMENT_TYPE: Ki (nM)
Answer in nM, number only, no unit symbol.

Request: Please provide the recorded Ki for O=C([C@@H](Cc1cccc(C(F)(F)F)c1)NS(=O)(=O)c1cc(F)c2c(c1)CCNC2)N1CCCC1 , tested on Histone-lysine N-methyltransferase SETD7 (Homo sapiens, UniProt Q8WTS6).
Response: 0.33
